Each entry below carries its reported IC50.
# assayTarget: EGFR WT (Ba/F3 cells) (Homo sapiens)
# testName: Inhibitor activity on EGFR-dependent cell growth (CellTiter-Glo, 72 h), Ba/F3 EGFR WT
# conditionDescription: read-out: BaF3 WT IC50

Answered examples (5):
compound: COc1c(Cl)cccc1Nc1c(-c2ccnc3ccc(OCC4(F)CC4)nc23)[nH]c2c1C(=O)NCC2
propertyMeasured: IC50
reportedValue: 100 to 1000 nM
--
compound: COc1c(Cl)cccc1Nc1c(-c2ccnc(N)n2)[nH]c2c1C(=O)NC[C@@H]2C[C@H]1COCCO1
propertyMeasured: IC50
reportedValue: 100 to 1000 nM
--
compound: COc1c(Cl)cccc1Nc1c(-c2ccnc(C)n2)[nH]c2c1C(=O)NCC2
propertyMeasured: IC50
reportedValue: 100 to 1000 nM
--
compound: COc1c(F)cccc1Nc1c(-c2ccnc3c(N)noc23)[nH]c2c1C(=O)NCC2
propertyMeasured: IC50
reportedValue: 100 to 1000 nM
--
compound: C=CC(=O)NCC[C@H]1CNC(=O)c2c1[nH]c(-c1ccnc(C)n1)c2Nc1cccc(Cl)c1OC
propertyMeasured: IC50
reportedValue: > 1000 nM

Noted for Cc1ccc(F)cc1Nc1c(-c2ccnc(N)n2)[nH]c2c1C(=O)NCC2 : its IC50 reads > 1000 nM

Noted for COc1c(F)cccc1Nc1c(-c2ccncc2)[nH]c2c1C(=O)NCC2 : its IC50 reads > 1000 nM

Noted for COc1c(F)cc(F)cc1Nc1c(-c2ccnc(N)n2)[nH]c2c1C(=O)NCC2 : its IC50 reads > 1000 nM

Noted for COc1c(Cl)cccc1Nc1c(-c2ccncc2F)[nH]c2c1C(=O)NC[C@H]2CC(=O)N(C)C : its IC50 reads > 1000 nM

Noted for COc1c(Cl)cccc1Nc1c(-c2ccnc(C)n2)[nH]c2c1C(=O)NC[C@@H]2CC1COCCO1 (stereo in doubt) : its IC50 reads 100 to 1000 nM

Noted for COc1c(Cl)cccc1Nc1c(-c2ccnc3c2OCC(=O)N3)[nH]c2c1C(=O)NCC2 : its IC50 reads > 1000 nM

* * *

# assayTarget: EGFR WT (Ba/F3 cells) (Homo sapiens, UniProt P00533)
# Sequence (P00533 25-1210): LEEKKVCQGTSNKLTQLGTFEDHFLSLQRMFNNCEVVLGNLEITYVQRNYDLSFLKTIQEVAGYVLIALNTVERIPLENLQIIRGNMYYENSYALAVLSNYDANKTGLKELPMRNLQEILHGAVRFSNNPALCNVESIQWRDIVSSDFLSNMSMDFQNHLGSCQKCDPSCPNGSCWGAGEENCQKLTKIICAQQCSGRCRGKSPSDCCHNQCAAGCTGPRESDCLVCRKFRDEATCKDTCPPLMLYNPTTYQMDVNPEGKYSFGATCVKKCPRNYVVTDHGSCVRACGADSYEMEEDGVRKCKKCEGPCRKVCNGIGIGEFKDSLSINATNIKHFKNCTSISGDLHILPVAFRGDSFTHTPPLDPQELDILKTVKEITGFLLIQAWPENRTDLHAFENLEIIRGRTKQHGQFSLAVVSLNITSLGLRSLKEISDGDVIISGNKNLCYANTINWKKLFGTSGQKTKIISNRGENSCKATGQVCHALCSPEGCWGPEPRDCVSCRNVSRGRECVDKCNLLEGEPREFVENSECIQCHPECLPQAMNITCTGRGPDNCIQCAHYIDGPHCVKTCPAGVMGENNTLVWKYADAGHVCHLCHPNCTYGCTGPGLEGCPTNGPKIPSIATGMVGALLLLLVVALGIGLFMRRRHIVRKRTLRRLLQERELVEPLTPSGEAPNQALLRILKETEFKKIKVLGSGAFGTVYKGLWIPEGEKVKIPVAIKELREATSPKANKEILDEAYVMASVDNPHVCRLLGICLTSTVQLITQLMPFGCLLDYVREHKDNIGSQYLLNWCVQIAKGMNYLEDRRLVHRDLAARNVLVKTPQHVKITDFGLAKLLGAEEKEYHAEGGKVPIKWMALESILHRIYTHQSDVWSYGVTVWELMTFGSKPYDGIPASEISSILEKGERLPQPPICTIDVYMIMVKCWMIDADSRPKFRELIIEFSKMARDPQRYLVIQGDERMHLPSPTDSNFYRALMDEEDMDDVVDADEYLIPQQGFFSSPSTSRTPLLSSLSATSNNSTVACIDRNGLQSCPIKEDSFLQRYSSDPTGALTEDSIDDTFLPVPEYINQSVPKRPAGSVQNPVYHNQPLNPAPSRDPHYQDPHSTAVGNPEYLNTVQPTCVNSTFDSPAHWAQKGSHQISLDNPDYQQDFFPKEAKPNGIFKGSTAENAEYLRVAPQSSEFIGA
# testName: Inhibitor activity on EGFR-dependent cell growth (CellTiter-Glo, 72 h), Ba/F3 EGFR WT
# conditionDescription: read-out: BaF3 WT IC50
Each entry below carries its reported IC50.

Noted for COc1c(Cl)cccc1Nc1c(-c2ccncc2F)[nH]c2c1C(=O)NCC21CN(CC(F)F)C1 : its IC50 reads > 1000 nM

Noted for COc1c(Cl)cccc1Nc1c(-c2ccnc3ccc(OC4CC4)nc23)[nH]c2c1C(=O)NC[C@@H]2C : its IC50 reads < 100 nM

Noted for Nc1nccc(-c2[nH]c3c(c2Nc2cccc(F)c2F)C(=O)NCC3)n1 : its IC50 reads 100 to 1000 nM

Noted for COc1c(Cl)cccc1Nc1c(-c2ccnc(C(F)F)n2)[nH]c2c1C(=O)NCC2 : its IC50 reads > 1000 nM

Noted for COc1c(F)cccc1Nc1c(-c2ncnc3[nH]ncc23)[nH]c2c1C(=O)NCC2 : its IC50 reads > 1000 nM

Noted for COc1c(Cl)cccc1Nc1c(-c2ccnc(N)n2)[nH]c2c1C(=O)NC[C@H]2C [186b] : its IC50 reads 100 to 1000 nM

Noted for COc1c(Cl)cccc1Nc1c(-c2ccnc(NC[C@@H]3CCO3)n2)[nH]c2c1C(=O)NCC2 : its IC50 reads > 1000 nM

* * *

# assayTarget: EGFR exon 20 ASV Ins V769_D770 (Ba/F3 cells) (Homo sapiens, UniProt P00533, INS769ASV)
# Construct: expressed in transfected cells; host or cells: Ba/F3 (murine pro-B cells), retroviral transduction, puromycin selection, IL3-independent pool
# Sequence (P00533 with tags, fused parts or gaps INS769ASV): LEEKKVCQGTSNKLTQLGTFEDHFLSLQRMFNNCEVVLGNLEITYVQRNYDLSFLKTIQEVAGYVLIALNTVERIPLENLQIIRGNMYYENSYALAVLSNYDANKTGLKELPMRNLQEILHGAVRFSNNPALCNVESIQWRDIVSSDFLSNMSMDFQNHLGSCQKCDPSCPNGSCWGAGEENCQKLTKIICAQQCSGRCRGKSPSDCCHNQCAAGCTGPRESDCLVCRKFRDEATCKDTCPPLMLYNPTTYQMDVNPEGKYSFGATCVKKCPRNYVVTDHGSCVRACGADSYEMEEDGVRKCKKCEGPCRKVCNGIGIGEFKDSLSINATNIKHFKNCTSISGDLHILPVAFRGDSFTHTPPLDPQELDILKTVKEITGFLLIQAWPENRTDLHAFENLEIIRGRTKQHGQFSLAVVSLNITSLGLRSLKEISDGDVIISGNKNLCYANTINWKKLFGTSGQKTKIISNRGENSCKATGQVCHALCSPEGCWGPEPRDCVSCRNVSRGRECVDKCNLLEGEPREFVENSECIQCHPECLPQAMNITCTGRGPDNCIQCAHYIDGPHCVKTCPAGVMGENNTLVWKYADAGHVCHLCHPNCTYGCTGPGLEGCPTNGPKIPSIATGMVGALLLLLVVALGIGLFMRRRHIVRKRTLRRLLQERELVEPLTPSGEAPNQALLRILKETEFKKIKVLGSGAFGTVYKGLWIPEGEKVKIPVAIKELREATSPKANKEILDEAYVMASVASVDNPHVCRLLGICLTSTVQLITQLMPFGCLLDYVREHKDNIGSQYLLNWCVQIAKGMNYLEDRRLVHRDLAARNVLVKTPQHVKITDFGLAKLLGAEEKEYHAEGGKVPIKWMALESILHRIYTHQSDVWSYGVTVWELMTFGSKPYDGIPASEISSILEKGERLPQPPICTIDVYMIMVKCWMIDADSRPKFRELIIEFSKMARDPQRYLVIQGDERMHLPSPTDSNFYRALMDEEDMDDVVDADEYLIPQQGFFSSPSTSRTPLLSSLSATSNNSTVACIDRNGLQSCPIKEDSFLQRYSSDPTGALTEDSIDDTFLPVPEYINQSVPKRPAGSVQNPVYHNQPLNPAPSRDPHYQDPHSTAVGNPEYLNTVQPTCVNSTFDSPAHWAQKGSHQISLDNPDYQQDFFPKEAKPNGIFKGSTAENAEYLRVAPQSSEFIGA
# testName: Inhibitor activity on EGFR-dependent cell growth (CellTiter-Glo, 72 h), Ba/F3 EGFR exon 20 ASV Ins
# Assay type: cell-based
# conditionDescription: read-out: BaF3 ASV IC50
pIC50: −log10 of the molar value.
propertyMeasured: pIC50

Noted for C=CC(=O)NCC[C@H]1CNC(=O)c2c1[nH]c(-c1ccnc(C)n1)c2Nc1cccc(Cl)c1OC [compound 653] : its pIC50 reads 6.00 to 7.00

Noted for COCC[C@H]1CNC(=O)c2c1[nH]c(-c1ccncn1)c2Nc1cccc(Cl)c1OC [445b] : its pIC50 reads 6.00 to 7.00

Noted for COCC[C@H]1CNC(=O)c2c1[nH]c(-c1ccnc(N)n1)c2Nc1cccc(Cl)c1OC [Compound 727] : its pIC50 reads > 7.00

Noted for COC(=O)N1CC2(CNC(=O)c3c2[nH]c(-c2ccncc2F)c3Nc2cccc(Cl)c2OC)C1 [Compound 490] : its pIC50 reads < 6.00

* * *

# assayTarget: EGFR exon 20 FQEA Ins A763_V764 (Ba/F3 cells) (Homo sapiens, UniProt P00533, INS763FQEA)
# Sequence (P00533 with tags, fused parts or gaps INS763FQEA): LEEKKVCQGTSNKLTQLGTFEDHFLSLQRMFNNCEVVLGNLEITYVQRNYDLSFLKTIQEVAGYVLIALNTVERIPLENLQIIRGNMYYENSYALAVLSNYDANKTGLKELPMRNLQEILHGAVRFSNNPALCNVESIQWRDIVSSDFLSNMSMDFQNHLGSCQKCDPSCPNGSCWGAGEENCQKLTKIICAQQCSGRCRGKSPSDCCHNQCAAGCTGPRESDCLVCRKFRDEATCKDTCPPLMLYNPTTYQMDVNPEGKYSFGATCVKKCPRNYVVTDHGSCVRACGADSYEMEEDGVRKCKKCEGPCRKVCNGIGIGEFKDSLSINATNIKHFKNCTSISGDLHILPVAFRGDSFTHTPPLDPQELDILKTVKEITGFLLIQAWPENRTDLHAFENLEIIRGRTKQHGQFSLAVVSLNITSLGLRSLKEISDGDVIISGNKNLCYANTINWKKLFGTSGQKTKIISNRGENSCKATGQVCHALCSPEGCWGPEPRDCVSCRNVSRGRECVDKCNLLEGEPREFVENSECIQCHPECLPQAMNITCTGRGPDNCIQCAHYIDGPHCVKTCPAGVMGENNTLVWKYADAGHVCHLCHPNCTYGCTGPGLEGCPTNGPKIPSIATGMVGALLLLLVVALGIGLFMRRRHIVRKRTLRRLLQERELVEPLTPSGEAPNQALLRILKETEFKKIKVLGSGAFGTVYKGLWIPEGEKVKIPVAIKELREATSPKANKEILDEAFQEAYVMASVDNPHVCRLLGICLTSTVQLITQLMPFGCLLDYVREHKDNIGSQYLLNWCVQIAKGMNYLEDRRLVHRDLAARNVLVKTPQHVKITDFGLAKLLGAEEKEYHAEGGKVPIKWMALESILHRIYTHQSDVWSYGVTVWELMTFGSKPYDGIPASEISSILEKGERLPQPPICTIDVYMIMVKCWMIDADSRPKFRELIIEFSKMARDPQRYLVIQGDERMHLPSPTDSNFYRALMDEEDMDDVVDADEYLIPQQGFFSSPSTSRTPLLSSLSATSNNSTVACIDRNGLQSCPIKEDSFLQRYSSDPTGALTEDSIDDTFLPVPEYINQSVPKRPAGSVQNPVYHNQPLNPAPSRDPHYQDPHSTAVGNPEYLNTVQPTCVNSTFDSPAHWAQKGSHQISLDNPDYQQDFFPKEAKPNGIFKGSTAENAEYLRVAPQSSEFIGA
# testName: Inhibitor activity on EGFR-dependent cell growth (CellTiter-Glo, 72 h), Ba/F3 EGFR exon 20 FQEA Ins
# conditionDescription: read-out: BaF3 FQEA IC50
pIC50: −log10 of the molar value.
propertyMeasured: pIC50

compound: COc1c(F)cccc1Nc1c(-c2ccnc3cc(F)cnc23)[nH]c2c1C(=O)NCC2 [Compound 825]
reportedValue: 6.00 to 7.00

compound: COc1ncc2nccc(-c3[nH]c4c(c3Nc3cccc(Cl)c3Cl)C(=O)NCC4)c2n1 [Compound 803]
reportedValue: > 7.00

compound: COCC[C@@H]1CNC(=O)c2c1[nH]c(-c1ccncc1F)c2Nc1cccc(F)c1OC(F)F [Compound 470]
reportedValue: 6.00 to 7.00

compound: CSc1c(Cl)cccc1Nc1c(-c2ccnc(N)n2)[nH]c2c1C(=O)NCC2 [Compound 715]
reportedValue: 6.00 to 7.00

compound: COc1cc2c(-c3[nH]c4c(c3Nc3cccc(Cl)c3OC)C(=O)NCC4)ccnc2cn1 [Compound 772]
reportedValue: < 6.00

Noted for COc1c(Cl)cccc1Nc1c(-c2ccncc2F)[nH]c2c1C(=O)NC[C@@]21CCN(CC(F)(F)F)C1 [compound 817] : its pIC50 reads > 7.00

Noted for COc1c(Cl)cccc1Nc1c(-c2ccncc2F)[nH]c2c1C(=O)NC[C@]21CCN(S(C)(=O)=O)C1 [compound 494] : its pIC50 reads < 6.00

Noted for COc1ncc2nccc(-c3[nH]c4c(c3Nc3cccc(C)c3F)C(=O)NCC4)c2n1 [Compound 804] : its pIC50 reads > 7.00

* * *

# assayTarget: EGFR exon 20 FQEA Ins A763_V764 (Ba/F3 cells) (Homo sapiens, UniProt P00533, INS763FQEA)
# testName: Inhibitor activity on EGFR-dependent cell growth (CellTiter-Glo, 72 h), Ba/F3 EGFR exon 20 FQEA Ins
# conditionDescription: read-out: BaF3 FQEA IC50
Each entry below carries its reported IC50.

Measured IC50 (EGFR exon 20 FQEA Ins A763_V764 (Ba/F3 cells) (Homo sapiens, UniProt P00533, INS763FQEA)), entry COc1c(Cl)cccc1Nc1c(-c2ccncc2F)[nH]c2c1C(=O)NC[C@H]2CC(=O)N(C)C : 100 to 1000 nM

* * *

# assayTarget: EGFR exon 20 FQEA Ins A763_V764 (Ba/F3 cells) (Homo sapiens, UniProt P00533, INS763FQEA)
# testName: Inhibitor activity on EGFR-dependent cell growth (CellTiter-Glo, 72 h), Ba/F3 EGFR exon 20 FQEA Ins
# conditionDescription: read-out: BaF3 FQEA IC50
propertyMeasured: IC50

smilesString: COc1c(Nc2c(-c3ccnc(N)n3)[nH]c3c2C(=O)NCC3)cccc1C(C)=O
reportedValue: > 1000 nM

smilesString: COc1nccc(-c2[nH]c3c(c2Nc2cccc(Cl)c2OC)C(=O)NCC3)n1
reportedValue: > 1000 nM

smilesString: COc1c(Cl)cc(F)cc1Nc1c(-c2ccnc(N)n2)[nH]c2c1C(=O)NCC2
reportedValue: 100 to 1000 nM

Next:
Noted for CCOc1c(F)cccc1Nc1c(-c2ccnc(N)n2)[nH]c2c1C(=O)NCC2 : its IC50 reads > 1000 nM

* * *

Each entry below carries its reported pIC50.
# assayTarget: EGFR exon 20 NPG Ins D770_N771 (Ba/F3 cells) (Homo sapiens, UniProt P00533, INS770NPG)
# Construct: expressed in transfected cells; host or cells: Ba/F3 (murine pro-B cells), retroviral transduction, puromycin selection, IL3-independent pool
# Sequence (P00533 with tags, fused parts or gaps INS770NPG): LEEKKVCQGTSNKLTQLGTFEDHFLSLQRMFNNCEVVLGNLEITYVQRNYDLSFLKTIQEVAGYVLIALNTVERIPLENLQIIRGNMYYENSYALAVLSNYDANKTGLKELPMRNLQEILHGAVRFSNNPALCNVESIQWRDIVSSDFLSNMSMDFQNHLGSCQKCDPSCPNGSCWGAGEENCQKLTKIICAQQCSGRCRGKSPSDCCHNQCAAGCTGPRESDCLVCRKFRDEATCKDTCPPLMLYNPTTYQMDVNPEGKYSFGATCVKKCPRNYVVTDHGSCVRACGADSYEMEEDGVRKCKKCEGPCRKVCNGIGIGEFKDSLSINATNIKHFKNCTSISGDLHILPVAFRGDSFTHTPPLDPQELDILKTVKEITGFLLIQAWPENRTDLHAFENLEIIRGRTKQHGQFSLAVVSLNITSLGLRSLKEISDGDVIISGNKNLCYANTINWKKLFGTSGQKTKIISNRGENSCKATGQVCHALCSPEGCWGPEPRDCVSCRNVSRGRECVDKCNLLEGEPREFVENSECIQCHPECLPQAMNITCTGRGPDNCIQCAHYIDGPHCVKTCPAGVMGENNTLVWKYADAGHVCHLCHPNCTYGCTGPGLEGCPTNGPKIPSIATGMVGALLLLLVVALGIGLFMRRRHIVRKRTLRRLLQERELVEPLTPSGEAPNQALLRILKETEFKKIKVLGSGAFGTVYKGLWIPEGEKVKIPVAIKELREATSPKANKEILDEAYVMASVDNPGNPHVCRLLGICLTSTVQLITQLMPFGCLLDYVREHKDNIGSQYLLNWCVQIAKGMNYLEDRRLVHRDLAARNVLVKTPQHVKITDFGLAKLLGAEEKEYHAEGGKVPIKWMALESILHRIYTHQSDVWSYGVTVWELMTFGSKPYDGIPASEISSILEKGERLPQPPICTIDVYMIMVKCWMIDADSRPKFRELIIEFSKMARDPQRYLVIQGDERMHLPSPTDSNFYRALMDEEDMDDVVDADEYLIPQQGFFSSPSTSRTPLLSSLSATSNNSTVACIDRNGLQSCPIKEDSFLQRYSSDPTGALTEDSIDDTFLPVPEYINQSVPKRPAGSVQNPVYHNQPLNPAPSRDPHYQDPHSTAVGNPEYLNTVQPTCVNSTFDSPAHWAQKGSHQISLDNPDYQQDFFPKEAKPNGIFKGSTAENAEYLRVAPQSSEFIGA
# testName: Inhibitor activity on EGFR-dependent cell growth (CellTiter-Glo, 72 h), Ba/F3 EGFR exon 20 NPG Ins
# Type: cell-based
# conditionDescription: read-out: BaF3 NPG IC50
pIC50: −log10 of the molar value.

Answered examples (5):
compound: COc1c(Cl)cccc1Nc1c(-c2ccnc(NCC(F)F)n2)[nH]c2c1C(=O)NCC2 [Compound 702]
assayTarget: EGFR exon 20 NPG Ins D770_N771 (Ba/F3 cells) (Homo sapiens, UniProt P00533, INS770NPG)
pIC50: 6.00 to 7.00

compound: COc1c(Cl)cccc1Nc1c(-c2ccnc(C)n2)[nH]c2c1C(=O)NC[C@@H]2C[C@@H]1COCCO1 [Compound 552]
assayTarget: EGFR exon 20 NPG Ins D770_N771 (Ba/F3 cells) (Homo sapiens, UniProt P00533, INS770NPG)
pIC50: > 7.00

compound: COc1c(Cl)cccc1Nc1c(-c2ccncc2F)[nH]c2c(C[C@@H]3COCCO3)c[nH]c(=O)c12 [compound 657]
assayTarget: EGFR exon 20 NPG Ins D770_N771 (Ba/F3 cells) (Homo sapiens, UniProt P00533, INS770NPG)
pIC50: > 7.00

compound: C=CC(=O)N1CCC2(CC1)CNC(=O)c1c2[nH]c(-c2ccncc2F)c1Nc1cc(F)cc(Cl)c1OC [Compound 559]
assayTarget: EGFR exon 20 NPG Ins D770_N771 (Ba/F3 cells) (Homo sapiens, UniProt P00533, INS770NPG)
pIC50: > 7.00

compound: COc1c(Cl)cccc1Nc1c(-c2ccnc(NC[C@@H]3CCO3)n2)[nH]c2c1C(=O)NCC2 [compound 719]
assayTarget: EGFR exon 20 NPG Ins D770_N771 (Ba/F3 cells) (Homo sapiens, UniProt P00533, INS770NPG)
pIC50: 6.00 to 7.00

Next:
Noted for COc1c(F)cccc1Nc1c(-c2ccnc3cnc(N4CCN(C(=O)/C=C/CN(C)C)CC4)nc23)[nH]c2c1C(=O)NCC2 [Compound 577] : its pIC50 reads > 7.00
